The entries below are paired with their reported pIC50.
Molecular target: ERRα (Homo sapiens)
Sequence (P11474 193-421 limits assumed): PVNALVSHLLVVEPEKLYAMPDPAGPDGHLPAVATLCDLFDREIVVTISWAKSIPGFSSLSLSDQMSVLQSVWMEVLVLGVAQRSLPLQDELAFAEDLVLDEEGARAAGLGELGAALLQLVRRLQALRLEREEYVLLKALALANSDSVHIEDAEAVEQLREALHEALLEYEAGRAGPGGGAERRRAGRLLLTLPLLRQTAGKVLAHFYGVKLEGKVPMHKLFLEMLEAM
Experiment: ERRα functional assay: mammalian two-hybrid reporter gene assay
pIC50 here: minus log base 10 of the concentration, concentration in moles per litre.

Examples from the recorded data:
{"smiles entry": "O=[N+]([O-])c1ccc(S(=O)(=O)Nc2ccccc2Oc2ccccc2)cc1", "numeric result": 5.75}
{"smiles entry": "COc1ccc(Oc2ccccc2NS(=O)(=O)c2ccc([N+](=O)[O-])cc2)cc1", "numeric result": 6.10}
{"smiles entry": "Cc1ccc(Oc2ccccc2NS(=O)(=O)c2ccc([N+](=O)[O-])cc2)cc1", "numeric result": 5.91}
{"smiles entry": "Cc1ccc(Oc2ccccc2NS(=O)(=O)c2ccc(N)cc2)cc1", "numeric result": 5.73}
{"smiles entry": "Nc1ccc(S(=O)(=O)Nc2ccccc2Oc2ccc(Cl)cc2)cc1", "numeric result": 5.79}

What does the data say about its pIC50? Entry: `O=[N+]([O-])c1ccc(S(=O)(=O)Nc2ccccc2Oc2ccc(Cl)cc2)cc1`
5.69
